tested on: 425362-245-T-J1 tumor spheroids, viability % test/control; experiment: Anticancer human tumor 425362-245-T-J1 patient-derived melanoma cell line growth inhibition; conditions: second compound 0.003 µM; first compound 10 µM; stronger effect = lower value; spheroids with HUVEC and MSC
The label is condition met for viability, T/C below 4% and condition not met for viability, T/C equal to or exceeding 4%.

Study these solved cases before continuing.
COc1ccc([C@@H](O)c2cc(-c3ncnc4cc(N5CCOCC5)ccc34)c(F)cc2Cl)nn1 + COc1cc2c(cc1O)CCNC21CSC2c3c(OC(C)=O)c(C)c4c(c3C(COC1=O)N1C(O)C3Cc5cc(C)c(OC)c(O)c5C(C21)N3C)OCO4	condition met
[2H]c1nc(C)nc([2H])c1-c1cc(NC[C@@H](C)c2cccc3c(C(=O)NC)ccnc23)ncn1 + COc1cc2c(cc1O)CCNC21CSC2c3c(OC(C)=O)c(C)c4c(c3C(COC1=O)N1C(O)C3Cc5cc(C)c(OC)c(O)c5C(C21)N3C)OCO4	condition met
CC(C)n1c(=O)n(C)c2cnc3cc(F)c(-c4ccc(OCCCN5CCCCC5)nc4)cc3c21 + COc1cc2c(cc1O)CCNC21CSC2c3c(OC(C)=O)c(C)c4c(c3C(COC1=O)N1C(O)C3Cc5cc(C)c(OC)c(O)c5C(C21)N3C)OCO4	condition met

Here is the next item to consider.
Ask: Please determine if Cc1cc(C)c(CNC(=O)c2cc(-c3ccc(CN4CCOCC4)cc3)cc3c2cnn3C2CCCC2)c(=O)[nH]1 + CC[C@@]1(O)C(=O)OCc2c1cc1n(c2=O)Cc2cc3c(CN(C)C)c(O)ccc3nc2-1 is below 4% in terms of viability, T/C.
Result: condition not met

###

Tested on: 425362-245-T-J1 tumor spheroids, viability % test/control
Test: Anticancer human tumor 425362-245-T-J1 cell line growth inhibition;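 also: spheroids exposed to agents for 7 days; 100% = DMSO vehicle control viability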
Settings: second compound 31.6 µM; first compound 0.1 µM; stronger effect = lower value; spheroids with HUVEC and MSC
Description: Multicellular complex tumor spheroid response to DNA repair inhibitors in combination with DNA-damaging drugs This study explores the anticancer activities of DNA-damaging drugs and inhibitors of DNA damage repair, both as single agents and in combinations. […] Twenty-six patient-derived or established malignant cell lines were evaluated representing sarcoma, melanoma, small cell lung cancer (SCLC), non-small cell lung cancer (NSCLC), as well as bladder, ovarian and pancreatic cancers. […]
Each entry below carries its reported viability, T/C.
# unit: % | format: bare number

Known results for compounds:
CC(C)n1c(=O)n(C)c2cnc3cc(F)c(-c4ccc(OCCCN5CCCCC5)nc4)cc3c21 + Cn1nnc2c(C(N)=O)ncn2c1=O	58.5
COc1cc(C)[nH]c(=O)c1CN1CCc2c(Cl)cc(C(OC)C3COC3)c(Cl)c2C1=O (stereo unspecified) + Cn1nnc2c(C(N)=O)ncn2c1=O	111
Cc1cc(C)c(CNC(=O)c2cc(-c3ccc(CN4CCOCC4)cc3)cc3c2cnn3C2CCCC2)c(=O)[nH]1 + Cn1nnc2c(C(N)=O)ncn2c1=O	116
COc1ccc([C@@H](O)c2cc(-c3ncnc4cc(N5CCOCC5)ccc34)c(F)cc2Cl)nn1 + Cn1nnc2c(C(N)=O)ncn2c1=O	109
[2H]c1nc(C)nc([2H])c1-c1cc(NC[C@@H](C)c2cccc3c(C(=O)NC)ccnc23)ncn1 + Cn1nnc2c(C(N)=O)ncn2c1=O	113

Below: the item to evaluate.
Ask: Need viability, T/C of CC1COCCN1c1cc(-c2ccnn2C)c2ccnc(-c3ccn[nH]3)c2n1 (stereo unspecified) + Cn1nnc2c(C(N)=O)ncn2c1=O , thanks.
Result: 10.8

Attribution: PubChem BioAssay AID1845198
